- target: T1, His-tagged human LILRB2 polypeptide (human, UniProt Q8N423 22-460)
- T1 construct: SPR analyte; also called His-tagged human LILBR2 polypeptide; not shown: His tag
- T1 sequence (Q8N423 22-460 limits assumed): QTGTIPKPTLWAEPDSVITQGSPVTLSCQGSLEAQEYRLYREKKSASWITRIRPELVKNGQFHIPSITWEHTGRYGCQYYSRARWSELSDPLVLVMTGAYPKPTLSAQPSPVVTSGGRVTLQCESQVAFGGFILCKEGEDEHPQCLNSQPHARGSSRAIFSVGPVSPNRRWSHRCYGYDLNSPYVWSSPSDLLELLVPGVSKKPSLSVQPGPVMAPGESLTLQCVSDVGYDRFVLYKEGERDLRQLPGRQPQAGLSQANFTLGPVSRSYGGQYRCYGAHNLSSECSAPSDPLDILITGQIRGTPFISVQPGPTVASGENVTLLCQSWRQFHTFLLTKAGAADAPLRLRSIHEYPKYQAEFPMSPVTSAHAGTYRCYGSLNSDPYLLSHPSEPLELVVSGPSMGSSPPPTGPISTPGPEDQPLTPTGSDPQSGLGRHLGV
- assay protocol: SPR, antibody on CM5 chip, His-LILRB2 analyte, 1:1 model
Recorded measurements of koff, one per entry
value type: koff (s⁻¹)

# binder, reported result
data = [
    ("Antibody 14C11 (antibody, V domains shown, Mouse hybridoma mAb purified from ascites) VH: EVQLQQSGPDLVKPGASVKISCKASGYIFTDFNMHWVKQSHGKSLEWIGYIYPFNGGTGYNQKFENKATLTVDNSSSTAYMEVRSLTSEDSAVYYCARRGGRGHFDYWGQGTTLTVSS VL: DIQMTQSPASLSASVGETVTVTCRASGNIHNYLAWYQQKQGKSPQLLVYNAKTLADGVPSRFSGSGSGTQFSLKINSLQPEDFGSYYCQHFWNTPFTFGSGTKLEIK", 0.00025),
    ("Antibody 15A6 (antibody, V domains shown, Mouse hybridoma mAb purified from ascites) VH: EVKLVESGGDLVKPGGSLKLSCAASGFTFSTYGMSWVRQTPEKRLEWVATISGSNSYTYYPDSVKGRFTISRDNAKNNLYLQMSSLRSEDTALYYCTRHENGYYFYAMDYWGQGTSVTVSS VL: DVQITQSPSYLTASPGETITINCRSSKSITKYLAWYQEKPGKTNKLLIYSGSTLQSGIPSRFSGSGSGTDFTLTISSLEPEDFAMYYCQQHSEYPWTFGGGTRLEIK", 0.00137),
    ("Antibody 7C12 (antibody, V domains shown, Mouse hybridoma mAb purified from ascites) VH: EVQLQQSGPDLVKPGASVKISCKASGYIFTDFNMHWVKQSHGKSLEWIGYIYPFNGGTGYNQKFENMATLTVDISSSTAYMEVRSLTSEDSAVYYCARRGGRGHFDYWGQGTTLTVSS VL: DIQMTQSPASLSASVGETVTVTCRASGNIHNYLAWYQQKQGKSPQLLVYNAKTLADGVPSRFSGSGSGIQFSLKINSLQPEDFGSYYCQHFWNTPFTFGSGTKLEIK", 0.000209),
    ("Antibody 8A4 (antibody, V domains shown, Mouse hybridoma mAb purified from ascites) VH: QVQLKESGPGLVAPSQSLSITCTVSGFSLTDYGVNWVRQPPGKGLEWLGMIWGDGNTDYNSALKSRLSISKVNSKSQVFLKMNSLQTDDTARYYCARSSYRYDENIYYYAMDYWGQGTSVTVSS VL: DIVMTQSPSSLTVTAGEEVTLSCKSSQSLLNSGIQKNYLTWYQQKPGQPPKLLIYWASTRESGVPDRFTGSVSGTDFTLTISSVQAEDLAVYYCQNDYSLPFTFGSGTKLEIK", 0.000174),
]
